- test: NCI Yeast Anticancer Drug Screen. Data for the mec2-1 strain (AID 157)
- condition info: S. cerevisiae mec2-1 strain, at 50.0 µM, hits give high values
This is part of a sample that, as a whole, favours compounds with a hit. Of some 79,000 tested, about 15% had one in any assay.
# thresholds on growth inhibition define classes: group A = under 40%, group B = from 40% up to 80%, group C = 80% and over

compound	class
N#C/C(=C1C=C/C(=N\O)C(Cl)=C\1)c1ccccc1	group B
CCN(CC)c1ccc(N=Nc2cc(S(=O)(=O)O)ccc2O)c(O)c1	group A
COc1ccc(/C(=N/O)c2ccccc2C2=Nc3ccccc3C(NCc3ccccc3)O2)cc1C (stereo unspecified)	group C
CCOc1nc(OCC)nc(-c2cccn2-c2ccccc2)n1	group B
S=C1NC2=C(CSC/C2=C\c2ccc(Cl)cc2)C(c2ccc(Cl)cc2)N1 (stereo unspecified)	group C
CCCCCCCCCCCCOC1C(COCCN2CCCC2)OC2OC(C)(C)OC21 (stereo unspecified)	group C

Into which category would you place Nc1c([N+](=O)[O-])cc2c3c(cccc13)CC2 ?
group A

Which growth inhibition category applies to O=c1[nH]cc(F)c(=O)[nH]1 here?
group B

Given COc1cc(NCCCCCNC(C)C)c2ncccc2c1Cl , name the class its growth inhibition places it in.
group A

Consider Cc1c(N=Nc2ccc(Cl)cc2)c(C)n(C2OC(CO)C(O)C(O)C2O)c(=S)c1C#N (stereo unspecified) . To which growth inhibition class does it belong?
group B

Lab note: sort Clc1ccc(C(c2ccc(Cl)cc2)N2CCNCC2)cc1 into the matching growth inhibition band.
group C

###

- test: NCI Yeast Anticancer Drug Screen. Data for the rad52 strain (AID 147);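 also: 0% = growth of vehicle-treated control cultures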
- condition info: S. cerevisiae rad52 mutant growth inhibition; at 100.0 µM
This is part of a sample that, as a whole, favours compounds with a hit. Of some 79,000 tested, about 15% had one in any assay. The source made the active and inactive calls. No stated cut-off is given here; in the data, active means growth inhibition above about 70%; inactive means the rest. Starred links: 1 amine or outer side, 2 acyl side, 3 side chain; linkers in the order of their positions; H or OH if unused. Positions of bridges follow the written chain, without caps; N, C: chain ends. Non-standard residues stand in square brackets, D forms with d. Residues, ends and D or L forms follow the SMILES beside them. Chains are numbered I, II in the order given. Actinocin(9to1) = Cc1c2oc3c(C)ccc(C(=O)[*:1])c3nc-2c(C(=O)[*:2])c(N)c1=O; aThr = C[C@H](O)[C@H](N)C(=O)O; NMeV = CN[C@H](C(=O)O)C(C)C; Sar = CNCC(=O)O
Write down the outcome that applies. Available outcomes: t (active), f (inactive)

compound	class
O=C(N/N=C/c1ccc2c(c1)CCC2)c1ccccc1[N+](=O)[O-]	t
OC(c1ccc(Br)cc1)(c1cccs1)C1CC1 (stereo unspecified)	t
CCOC(=O)C1=C(C)NC(C)=C(C(=O)OCC)C1c1ccc(Cl)cc1	t
COc1ccc2c(C)cc(N/N=C/c3sccc3C)nc2c1	f
CCOC(=O)C1=C(C)NC(C)=C(C(=O)OCC)C1c1cccc([N+](=O)[O-])c1	t

Test call, this compound: Cc1c2oc3c(C)ccc(C(=O)N[C@@H]4C(=O)N[C@H](C(C)C)C(=O)N5CCC[C@H]5C(=O)N(C)CC(=O)N(C)[C@@H](C(C)C)C(=O)O[C@H]4C)c3nc-2c(C(=O)N[C@@H]2C(=O)N[C@H](C(C)C)C(=O)N3CCC[C@H]3C(=O)N(C)CC(=O)N(C)[C@@H](C(C)C)C(=O)O[C@H]2C)c(N)c1=O (I: [aThr][dV]P[Sar][NMeV] / II: [aThr][dV]P[Sar][NMeV]; ester I:1-I:C, II:1-II:C; linker I:N-II:N via Actinocin(9to1))
t

###

A collection of compounds and their measured growth inhibition
- test: NCI Yeast Anticancer Drug Screen. Data for the mlh1 strain (AID 171);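 also: 0% = growth of vehicle-treated control cultures of the same strain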
- condition info: S. cerevisiae mlh1 strain growth inhibition; at 1.2 µM; hits give high values
The panel holds about 79,000 compounds, 15% with a hit somewhere; the sample as a whole holds those more often.
Kindly answer with a numeric value in %, unit omitted.

compound	growth inhibition, %
Cc1c(N=Nc2ccc(Cl)cc2)c(C)n(C2OC(CO)C(O)C(O)C2O)c(=S)c1C#N (centres undefined)	2
Cc1cccc[c]1[Sn]([Cl])([S]/C(C#N)=N/N=C/c1ccc(N(C)C)cc1)[c]1ccccc1C	3
COc1ccc2nc3cccc([N+](=O)[O-])c3c(NCCCO)c2c1	35
CC(C)(C)[Si](C)(C)OCC1OC(n2cnc3c(N)ncnc32)C2OC(=S)OC12 (centres undefined)	-1
Cc1ccnc(NS(=O)(=O)c2ccc(Nc3c4ccccc4nc4ccccc34)cc2)n1	37

Specify reported growth inhibition for the compound shown: [O-]c1c2cc(-[n+]3c(-c4ccccc4)cc(-c4ccccc4)cc3-c3ccccc3)cc1COCCOCCOCCOCCOC2
-1

Determine from records and report growth inhibition for O=C1c2ccccc2-c2ccc(NC(=O)C3CCCCC3C(=O)O)cc21 (centres undefined)
7

Identify measured growth inhibition corresponding to Cc1ccc(Nc2n[nH]c(=S)s2)cc1C
-34

Indicate the recorded growth inhibition value for this compound: O=C(O)[C@H]1[C@@H](C2CCCCC2)O[C@@H](C2CCCCC2)O[C@H]1C(F)(F)F
-3

###

- test: NCI Yeast Anticancer Drug Screen. Data for the rad50 strain (AID 155);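 also: 0% = growth of vehicle-only cultures of the same strain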
- condition info: S. cerevisiae rad50 strain growth inhibition; at 100.0 µM; hits give high values
Compounds without any hit were thinned out: in the full panel of roughly 79,000, 15% have a hit. Calls of active or inactive are those of the source. No stated cut-off is given here; in the data, active means growth inhibition above about 70%; inactive means the rest.
Below, each of the compounds is paired with its reported growth inhibition value.

// known answers, use as guide
compound	growth inhibition
CCOC(=O)/C=C1\CCCn2c1ncc(C(=O)OCC)c2=O	31% (inactive)
O=C(CCCN1CCC2(CC1)OC(=O)N(c1ccccc1)C2=O)c1ccccc1	67% (inactive)
[Cl][Pt+2][Cl].[NH-]CC1(C[NH-])CCCCC1	98% (active)
CCOc1ccc2ccc3cccnc3c2n1	74% (active)
O=C(Nn1c(-c2ccccc2)nc2ccccc2c1=O)c1ccc(Cl)cc1	95% (active)

// next entry
State, in one line, measured growth inhibition of Cc1nc2ccc(Br)cc2c(=O)n1-c1ccc(NC2OCC(O)C(O)C2O)cc1 (stereo unspecified)
86% (active)

###

- test: NCI Yeast Anticancer Drug Screen. Data for the rad50 strain (AID 155);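 also: 0% = growth of vehicle-only cultures of the same strain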
- condition info: S. cerevisiae rad50 strain growth inhibition; at 33.0 µM; hits give high values
Compounds without any hit were thinned out: in the full panel of roughly 79,000, 15% have a hit.
growth inhibition below 50% gives no (0); growth inhibition at or above it gives yes (1).

compound	class
Nc1cccc2cc(Cl)cnc12	no (0)
O=C(Nn1c(-c2ccccc2)nc2ccccc2c1=O)c1ccc(Cl)cc1	yes (1)
O=c1[nH]cc(F)c(=O)[nH]1	yes (1)

API: above_or_equal(metric=growth inhibition, cutoff=50%) for item CN(C)/N=N/c1nc[nH]c1C(N)=O
no (0)

Evaluate O=C1C=CC(=O)N1c1ccc(Br)cc1Cl : growth inhibition at minimum 50%?
yes (1)

Evaluate CN(C)N1C(=O)SCC(c2ccccc2)(c2ccccc2)C1=O : growth inhibition at minimum 50%?
no (0)

Item Cc1nc2ccc(Br)cc2c(=O)n1-c1ccc(NC2OCC(O)C(O)C2O)cc1 (configuration not stated) with growth inhibition of 50% or above?
yes (1)

Determine whether measured growth inhibition meets or exceeds 50% for CN(C)CCn1c2ccccc2c2nc3cc4ccccc4cc3nc21
yes (1)

growth inhibition >= 50% for CCOC(=O)/C(O)=C(/C=N/C(=S)Nc1c(CC)cccc1CC)C(=O)OCC ?
no (0)

Could you verify whether the entry CC1=Cc2ccc(C)cc2C(=O)C1=O shows growth inhibition of no less than 50%?
yes (1)

Determine whether measured growth inhibition meets or exceeds 50% for COc1ccc2c(C)cc(N/N=C/c3sccc3C)nc2c1
yes (1)

Is the recorded value of growth inhibition equal to or greater than 50% for this compound? OC(c1ccc(Br)cc1)(c1cccs1)C1CC1 (configuration not stated)
yes (1)

###

The entries below are paired with their reported growth inhibition.
- test: NCI Yeast Anticancer Drug Screen. Data for the mec2-1 strain (AID 157)
- condition info: S. cerevisiae mec2-1 strain, at 1.2 µM, hits give high values
The panel holds about 79,000 compounds, 15% with a hit somewhere; the sample as a whole holds those more often.
Report the figure in % without appending any unit label.

Before answering, review these 2 worked examples.
molecule	assay value
CCCCCC(=O)C(C)(c1nc2n(c1O)/C(=N/C(=O)Nc1ccc(Cl)cc1)N=N2)c1nc2n(c1O)/C(=N/C(=O)Nc1ccc(Cl)cc1)N=N2	-3
CN(C)CCn1c2ccccc2c2nc3cc4ccccc4cc3nc21	-18

Output growth inhibition of O=C1OC(/C=C/c2ccccc2)Sc2ccccc21 (stereo not drawn)
-3

Could you please provide reported growth inhibition for COc1ccc2nc(N/N=C/c3sccc3C)cc(C)c2c1 ? Thanks!
-13

Give recorded growth inhibition. [N-]=[N+]=NC1CC(n2ccc(=O)[nH]c2=O)OC1COC(c1ccccc1)(c1ccccc1)c1ccccc1 (stereo not drawn)
-3

Tell me growth inhibition reported for Cc1nc2ccccc2c(=O)n1NC(=O)c1ccc(CS)cc1
-16

Name the recorded growth inhibition of the item O=C(O)NCC1CCCCC1 (tested in a mixture with another compound) in your answer.
-3

Annotate the molecule Cc1c(N=Nc2ccc(Cl)cc2)c(C)n(C2OC(CO)C(O)C(O)C2O)c(=S)c1C#N (stereo not drawn) with its measured growth inhibition.
2

Assign growth inhibition to the following record: [O-]c1c2cc(-[n+]3c(-c4ccccc4)cc(-c4ccccc4)cc3-c3ccccc3)cc1COCCOCCOCCOCCOC2
-5
